Test system: Candida albicans
measurementNotes: In vitro minimum inhibitory concentration of compound was determined against Candida albicans after 24 hr r
Type: functional
I'd appreciate it if you could supply MIC values for the items below.
Write the number in µM without appending the unit.

Notebook: CC1C=C(c2ccc(Cl)cc2)C(=O)O1 (configuration not stated) , MIC read as 31.2

Notebook: CC1C=C(c2ccc([N+](=O)[O-])cc2)C(=O)O1 (configuration not stated) , MIC read as 250

Notebook: CC1C=C(c2ccccc2)C(=O)O1 (configuration not stated) , MIC read as 1000

Notebook: CC1C=C(c2ccc(Cl)c(Cl)c2)C(=O)O1 (configuration not stated) , MIC read as 31.2

Notebook: CC1C=C(c2ccc(F)cc2)C(=O)O1 (configuration not stated) , MIC read as 62.5

Notebook: CC(=O)N1CCN(c2ccc(OC[C@H]3CO[C@](Cn4ccnc4)(c4ccc(Cl)cc4Cl)O3)cc2)CC1 , MIC read as 0.12

Notebook: CC1C=C(c2cccc(F)c2)C(=O)O1 (configuration not stated) , MIC read as 62.5

Notebook: Cc1ccc(C2=CC(C)OC2=O)cc1 (configuration not stated) , MIC read as 1000

Notebook: CC1C=C(c2cccc(Br)c2)C(=O)O1 (configuration not stated) , MIC read as 31.2

Notebook: CC[C@@H]1C=C(c2ccc(C)cc2)C(=O)O1 , MIC read as 250

Notebook: COc1ccc(C2=CC(C)OC2=O)cc1 (configuration not stated) , MIC read as 1000

Notebook: CC1C=C(c2ccc(Br)cc2)C(=O)O1 (configuration not stated) , MIC read as 7.81

Numbers sourced from ChEMBL document CHEMBL1133284.
